Provide the recorded EC50 for the entries that follow.
Target: UniProtKB P28223
Sequence (P28223 whole entry): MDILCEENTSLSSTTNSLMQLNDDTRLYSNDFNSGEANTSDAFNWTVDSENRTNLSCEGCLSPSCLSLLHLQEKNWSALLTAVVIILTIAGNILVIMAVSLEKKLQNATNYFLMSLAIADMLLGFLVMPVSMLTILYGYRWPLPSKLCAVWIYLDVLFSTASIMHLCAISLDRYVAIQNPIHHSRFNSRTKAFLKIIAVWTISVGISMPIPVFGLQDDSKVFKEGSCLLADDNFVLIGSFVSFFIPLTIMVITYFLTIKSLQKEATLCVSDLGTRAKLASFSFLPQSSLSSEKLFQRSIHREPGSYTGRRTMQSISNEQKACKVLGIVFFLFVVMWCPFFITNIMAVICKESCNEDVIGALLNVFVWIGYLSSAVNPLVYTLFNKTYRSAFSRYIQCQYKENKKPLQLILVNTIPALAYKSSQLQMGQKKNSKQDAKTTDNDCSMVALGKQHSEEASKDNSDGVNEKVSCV
Assay: Agonist activity at human 5HT2A receptor expressed in HEK293 cells assessed as calcium flux by FLIPR assay
Give the number; nM is assumed, so skip it.

INPUT: Quick check: EC50 of NC[C@H]1C[C@@H]1c1ccc(Cl)cc1F (relative stereo) ?
OUTPUT: 774

INPUT: Give its EC50 value. Item: Cc1cccc([C@H]2C[C@@H]2CN)c1C (relative stereo)
OUTPUT: 360

INPUT: Entry under review: Cc1cccc([C@H]2C[C@@H]2CN)c1 (relative stereo) . Reported EC50?
OUTPUT: 585

INPUT: Param item = NC[C@H]1C[C@@H]1c1cccc(C(F)(F)F)c1 (relative stereo) ; retrieve measured EC50.
OUTPUT: 1480
